Where do these numbers come from? They come from patent US20210363269A1.

Target Under Test: T1, NOD mouse SIRP-α D1 domain (mouse (NOD strain))
T1 chain: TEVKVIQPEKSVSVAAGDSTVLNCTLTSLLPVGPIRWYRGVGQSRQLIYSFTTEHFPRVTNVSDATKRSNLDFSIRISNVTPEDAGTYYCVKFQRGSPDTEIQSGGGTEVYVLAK
Protocol Description: SPR, Langmuir fit
Outcome Measure: koff (s⁻¹)
Give the quantity in s⁻¹, number only.

Here are 3 binders together with their reported answers.
Binder	Result Unit	koff
S22 (scFv, V domains shown, also called clone 22) VH: DVQLVESGGGVVRPGESLRLSCAASGFTFSSYAMSWVRQAPGKGLEWLAGISAGGSDTYYIDSVKGRFTISRRQFQEQSLSPNEPALTAEDTAVYYCARETWNHLFDYWGLGTLVTVSS VL: ALTQPASVSANPGETVKITCSGGDYYSTYYGWYQQKSPGSAPVTVIHSDDKRPSDIPSRFSGSASGSAATLTIAGVRVEDEAVYFCGAYDGRTYINTFGAGTTLTVL	s⁻¹	0.000583
S25 (scFv, V domains shown, also called clone 25; scFv-Fc form of AB25) VH: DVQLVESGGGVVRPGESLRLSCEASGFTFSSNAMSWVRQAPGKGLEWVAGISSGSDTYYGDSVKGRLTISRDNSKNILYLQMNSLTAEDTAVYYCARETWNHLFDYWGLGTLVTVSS VL: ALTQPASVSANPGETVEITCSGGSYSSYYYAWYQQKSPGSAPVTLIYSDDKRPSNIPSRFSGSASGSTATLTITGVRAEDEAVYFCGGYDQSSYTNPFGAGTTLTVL	s⁻¹	0.000779
S56 (scFv, V domains shown, also called clone 56) VH: DVQLVESGGGVVRPGESLRLSCAASGFTFSSYAMSWVRQAPGKGLEWLAGISAGGSDTYYIDSVKGRFTISRDNSKNSLYLQVNSLTAEDTAVYYCARETWNHLFDYWGLGTLVTVSS VL: ALTQPASVSANPGETVKITCSGGGYYSTYYGWYQQKSPGSAPVTVIHSDDKRPSDIPSRFSGSASGSAATLTITGVRVEDEAVYYCAGYDGRTYINTFGAGTTLTVL	s⁻¹	0.00106

Query (binder): S55 (scFv, V domains shown, also called clone 55) VH: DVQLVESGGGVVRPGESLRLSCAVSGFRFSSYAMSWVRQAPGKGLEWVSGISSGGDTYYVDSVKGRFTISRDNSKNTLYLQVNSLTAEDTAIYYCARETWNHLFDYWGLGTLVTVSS VL: ALTQPASVSANLGETVEITCSGGDSSSHYYGWYQQKSPGSAPVTVIYSDDERPSDIPSRFSGSASGSTATLTITGVRVEDEAIYYCGAYDGSTYANTFGAGTTLTVL ; field requested: koff
0.00119
